Values were extracted from ChEMBL document CHEMBL4130343.

# assayDetails: Bioavailability in rat at 10 mg/kg, ip after 0.083 to 24 hrs by LC-MS/MS method
# Format: ADME, organism-based
# studyConditions: in vivo
measurementType: bioavailability (%)
Give the value in % but do not write % after it.

Challenge: Please give the documented bioavailability of Cc1c(C(=O)NC2CCN(C)CC2)oc2ccc(N(Cc3ccc(Br)cc3)S(=O)(=O)c3ccc(Br)cc3)cc12
Response given: 86.1

* * *

solubility reference
# assayDetails: Intrinsic aqueous solubility of the compound
# Format: physicochemical
# studyConditions: read-out: Intrinsic_solubility
Give the value in µg/mL but do not write µg/mL after it.

Challenge: Please give the documented solubility of Cc1c(C(=O)NC2CCN(C)CC2)oc2ccc(N(Cc3ccc(Br)cc3)S(=O)(=O)c3ccc(Br)cc3)cc12
Response given: 30.2

Please find the next compound below.
Challenge: Please give the documented solubility of CCN(CC)CCNC(=O)c1oc2ccc(N(Cc3ccc(Br)cc3)S(=O)(=O)c3ccc(Br)cc3)cc2c1C
Response given: 21

* * *

# assayDetails: Plasma concentration in rat at 10 mg/kg, iv after 36 hrs by LC-MS/MS method
# Assay type: ADME, organism-based
measurementType: concentration at 36 h

Challenge: Please give the documented concentration at 36 h of Cc1c(C(=O)NC2CCN(C)CC2)oc2ccc(N(Cc3ccc(Br)cc3)S(=O)(=O)c3ccc(Br)cc3)cc12
Response given: > 10 ng/mL

* * *

# assayDetails: Cmax in rat at 10 mg/kg, po after 0.083 to 24 hrs by LC-MS/MS method
# Format: ADME, organism-based
# Parameters: dose 10 mg/kg, route oral
# studyConditions: in vivo
measurementType: Cmax (ng/mL)
Give the value in ng/mL but do not write ng/mL after it.

Challenge: Please give the documented Cmax of Cc1c(C(=O)NC2CCN(C)CC2)oc2ccc(N(Cc3ccc(Br)cc3)S(=O)(=O)c3ccc(Br)cc3)cc12
Response given: 80.6

* * *

IC50 reference
# System: MCF7
# assayDetails: Antiproliferative activity against human MCF7 cells after 48 hrs by MTT assay
# Format: functional, cell-based
# studyConditions: MCF7, 48 h
Give the value in µM but do not write µM after it.

Please review the entries below; each comes with its answer.
Challenge: Please give the documented IC50 of CC(=O)NCCNC(=O)c1oc2ccc(N(Cc3ccc(Br)cc3)S(=O)(=O)c3ccc(Br)cc3)cc2c1C
Response given: 21.3

Challenge: Please give the documented IC50 of Cc1c(C(=O)NCCN(C(C)C)C(C)C)oc2ccc(N(Cc3ccc(Br)cc3)S(=O)(=O)c3ccc(Br)cc3)cc12
Response given: 10.9

Challenge: Please give the documented IC50 of Cc1c(C(=O)NCCN2CCCCC2)oc2ccc(N(Cc3ccc(Br)cc3)S(=O)(=O)c3ccc(Br)cc3)cc12
Response given: 3.36

Challenge: Please give the documented IC50 of Cc1c(C(=O)N2CCCC(C)C2)oc2ccc(N(Cc3ccc(Br)cc3)S(=O)(=O)c3ccc(Br)cc3)cc12 (stereo not given)
Response given: 32.8

Further cases:
Challenge: Please give the documented IC50 of Cc1c(C(=O)NCCCN(C)C)oc2ccc(N(Cc3ccc(Br)cc3)S(=O)(=O)c3ccc(Br)cc3)cc12
Response given: 3.71

Challenge: Please give the documented IC50 of CNCCNC(=O)c1oc2ccc(N(Cc3ccc(Br)cc3)S(=O)(=O)c3ccc(Br)cc3)cc2c1C
Response given: 4.37

Challenge: Please give the documented IC50 of CCN(CC)CCNC(=O)c1oc2ccc(N(Cc3ccc(Br)cc3)S(=O)(=O)c3ccc(Br)cc3)cc2c1C
Response given: 2.84

Challenge: Please give the documented IC50 of Cc1c(C(=O)N2CCOCC2)oc2ccc(N(Cc3ccc(Br)cc3)S(=O)(=O)c3ccc(Br)cc3)cc12
Response given: 15.4

Challenge: Please give the documented IC50 of Cc1c(C(=O)N2CCNCC2)oc2ccc(N(Cc3ccc(Br)cc3)S(=O)(=O)c3ccc(Br)cc3)cc12
Response given: 9.72

Challenge: Please give the documented IC50 of Cc1c(C(=O)NCCN2CCCC2)oc2ccc(N(Cc3ccc(Br)cc3)S(=O)(=O)c3ccc(Br)cc3)cc12
Response given: 5.44

Challenge: Please give the documented IC50 of Cc1c(C(=O)NC2CCN(C)CC2)oc2ccc(N(Cc3ccc(Br)cc3)S(=O)(=O)c3ccc(Br)cc3)cc12
Response given: 2.39

* * *

# assayDetails: Cmax in rat at 10 mg/kg, ip after 0.083 to 24 hrs by LC-MS/MS method
# Assay type: ADME, organism-based
# Parameters: dose 10 mg/kg, route intraperitoneal
# studyConditions: in vivo
measurementType: Cmax

Challenge: Please give the documented Cmax of Cc1c(C(=O)NC2CCN(C)CC2)oc2ccc(N(Cc3ccc(Br)cc3)S(=O)(=O)c3ccc(Br)cc3)cc12
Response given: 549 ng/mL

* * *

# assayDetails: Half life in rat at 10 mg/kg, iv after 0.083 to 24 hrs by LC-MS/MS method
# Assay type: ADME, organism-based
# studyConditions: in vivo
measurementType: half-life (h)
Give the value in h but do not write h after it.

Challenge: Please give the documented half-life of Cc1c(C(=O)NC2CCN(C)CC2)oc2ccc(N(Cc3ccc(Br)cc3)S(=O)(=O)c3ccc(Br)cc3)cc12
Response given: 7.68

* * *

# assayDetails: Oral bioavailability in rat at 10 mg/kg after 0.083 to 24 hrs by LC-MS/MS method
# Format: ADME, organism-based
# studyConditions: in vivo
measurementType: bioavailability (%)
Give the value in % but do not write % after it.

Challenge: Please give the documented bioavailability of Cc1c(C(=O)NC2CCN(C)CC2)oc2ccc(N(Cc3ccc(Br)cc3)S(=O)(=O)c3ccc(Br)cc3)cc12
Response given: 15

* * *

# assayDetails: Effective permeability of the compound at pH 7.4 by PAMPA
# Type: ADME
# studyConditions: read-out: Peff
measurementType: Papp (×10⁻⁶ cm/s)
Give the value in ×10⁻⁶ cm/s but do not write ×10⁻⁶ cm/s after it.

Challenge: Please give the documented Papp of CCN(CC)CCNC(=O)c1oc2ccc(N(Cc3ccc(Br)cc3)S(=O)(=O)c3ccc(Br)cc3)cc2c1C
Response given: 2.54

Please find the next compound below.
Challenge: Please give the documented Papp of Cc1c(C(=O)NC2CCN(C)CC2)oc2ccc(N(Cc3ccc(Br)cc3)S(=O)(=O)c3ccc(Br)cc3)cc12
Response given: 6.54

* * *

# assayDetails: AUC (0 to t) in rat at 10 mg/kg, po after 0.083 to 24 hrs by LC-MS/MS method
# Assay type: ADME, organism-based
# Parameters: dose 10 mg/kg, time upper 24 hr, time lower 0.083 hr, route oral
# studyConditions: in vivo
measurementType: AUC(0-t)
Be sure to follow the number with its unit.

Challenge: Please give the documented AUC(0-t) of Cc1c(C(=O)NC2CCN(C)CC2)oc2ccc(N(Cc3ccc(Br)cc3)S(=O)(=O)c3ccc(Br)cc3)cc12
Response given: 1.08 µg·h/mL

* * *

# assayDetails: Half life in rat at 10 mg/kg, po after 0.083 to 24 hrs by LC-MS/MS method
# Assay type: ADME, organism-based
# studyConditions: in vivo
measurementType: half-life (h)
Give the value in h but do not write h after it.

Challenge: Please give the documented half-life of Cc1c(C(=O)NC2CCN(C)CC2)oc2ccc(N(Cc3ccc(Br)cc3)S(=O)(=O)c3ccc(Br)cc3)cc12
Response given: 6.63

* * *

# Tested on: MCF7
# assayDetails: Antiproliferative activity against human MCF7 cells after 48 hrs by MTT assay
# Assay type: functional, cell-based
# studyConditions: MCF7, 48 h
IC50 reference

Please review the entries below; each comes with its answer.
Challenge: Please give the documented IC50 of Cc1c(C(=O)NCCNc2ccccc2)oc2ccc(N(Cc3ccc(Br)cc3)S(=O)(=O)c3ccc(Br)cc3)cc12
Response given: > 40 µM

Challenge: Please give the documented IC50 of Cc1c(C(=O)NCCc2ccc(S(N)(=O)=O)cc2)oc2ccc(N(Cc3ccc(Br)cc3)S(=O)(=O)c3ccc(Br)cc3)cc12
Response given: > 40 µM

Further cases:
Challenge: Please give the documented IC50 of Cc1c(C(=O)N2CCN(C)CC2)oc2ccc(N(Cc3ccc(Br)cc3)S(=O)(=O)c3ccc(Br)cc3)cc12
Response given: > 40 µM

* * *

# Tested on: MCF7
# assayDetails: Antiproliferative activity against human MCF7 cells after 48 hrs by MTT assay
# Assay type: functional, cell-based
# studyConditions: MCF7, 48 h
IC50 reference

Please review the entries below; each comes with its answer.
Challenge: Please give the documented IC50 of Cc1c(C(=O)N2CCNC(=O)C2)oc2ccc(N(Cc3ccc(Br)cc3)S(=O)(=O)c3ccc(Br)cc3)cc12
Response given: > 40 µM

Challenge: Please give the documented IC50 of Cc1ccc(NC(=O)c2oc3ccc(N(Cc4ccc(Br)cc4)S(=O)(=O)c4ccc(Br)cc4)cc3c2C)nc1
Response given: > 40 µM

Challenge: Please give the documented IC50 of Cc1c(C(=O)NCCS(C)(=O)=O)oc2ccc(N(Cc3ccc(Br)cc3)S(=O)(=O)c3ccc(Br)cc3)cc12
Response given: > 40 µM

Please find the next molecule below.
Challenge: Please give the documented IC50 of Cc1c(C(=O)NCCc2ccccn2)oc2ccc(N(Cc3ccc(Br)cc3)S(=O)(=O)c3ccc(Br)cc3)cc12
Response given: > 40 µM
